# test target: T1, human GPC3-his tag protein (human, UniProt P51654 25-559, limits assumed)
# T1 construct: recombinant soluble antigen used as analyte in all Biacore runs; also called recombinant GPC3 protein; rhGPC3-His; not shown: His tag
# assay notes: SPR Biacore 8K, mAb captured on CM5, single dose GPC3-his
# reported kon; entries follow
readout: kon

1. 152E9F7 mouse monoclonal antibody (antibody, V domains shown, mouse hybridoma antibody) VH: QVQLQQSGAELVRPGASVTLSCKASGYTFTDYEIHWVKQTPVHGLEWIGAIDPETGDTAYTQKFKGKAILTADKSSNTVYMELRSLTSEDSAVYYCTRFYSYAYWGQGTLVTVSA VL: DVVMTQTPLSLPVSLGDQASISCRSSQSLVHTNGHTYLQWYLQKSGQSPKLLIYKVSNRFSGVPDRFSGSGSGTDFTLKISRVEAEDLGVYFCSQSTHVPYTFGGGTKLEIK
184000 M⁻¹ s⁻¹
2. 52H5D3B8 mouse monoclonal antibody (antibody, V domains shown, mouse hybridoma antibody) VH: QVQLQQSGAELVRPGASVKLSCKALGYTFTDYEMHWVKQTPVHGLEWIGAIHPGSGGTAYNQKFKGKATLTADKFSSTGYMELSSLTSEDSAVYYCTRFYSYAYWGQGTLVTVSA VL: DVVMTQTPLSLPVSLGDQASISCRSSQSLVHSNGNTYLQWYLQKPGQSPKLLIYKVSNRFSGVPDRFSGSGSGTDFILKISRVEAEDLGVYFCSQSIHVPYTFGGGTKLEIK
228000 M⁻¹ s⁻¹
